biological target: mPGES-1 Mouse enzyme (Mus musculus, UniProt Q9JM51); construct: made in house; host or cells: FreeStyle 293-F cells, crude microsomal preparation; assay: mPGES-1 enzyme activity assay (PGE2 enzyme immunoassay), mouse enzyme; assay type: biochemical; settings: recombinant microsomal enzyme; means ± SD, triplicate; read-out: IC50 against mPGES-1, Mouse enzyme
Sequence (Q9JM51 whole entry): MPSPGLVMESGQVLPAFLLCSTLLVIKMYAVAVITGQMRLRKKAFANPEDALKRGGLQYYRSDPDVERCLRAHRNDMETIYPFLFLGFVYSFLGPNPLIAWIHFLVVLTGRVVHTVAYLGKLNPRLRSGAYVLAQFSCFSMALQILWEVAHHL
Labelling: IC50 reported below 1000 nM becomes class 1; at or above becomes class 0.

Prompt line: For `O=C(O)CN1C(=O)S/C(=C2\C(=O)N(CC3CCCCC3)c3ccc(-c4ccc(C#Cc5ccccc5)cc4)cc32)C1=O` , is the recorded IC50 below the cut-off of 1000 nM?
Response line: class 0

Prompt line: For `CCCCCCCCCCCCCCCCCCOc1c(Br)cc(C=C(C#N)C#N)cc1OC` , is the recorded IC50 below the cut-off of 1000 nM?
Response line: class 1

Prompt line: For `CCCCCCCOc1ccc(C=C(C#N)C#N)cc1` , is the recorded IC50 below the cut-off of 1000 nM?
Response line: class 0

Prompt line: For `CCCCCCOc1c(Br)cc(C=C(C#N)C#N)cc1OC` , is the recorded IC50 below the cut-off of 1000 nM?
Response line: class 0

Prompt line: For `O=C(O)CN1C(=O)S/C(=C2\C(=O)N(CCCCC3CCCCC3)c3ccc(-c4ccccc4)cc32)C1=O` , is the recorded IC50 below the cut-off of 1000 nM?
Response line: class 0

Prompt line: For `O=C(O)CN1C(=O)S/C(=C2\C(=O)N(CC3CCCCC3)c3ccc(-c4ccc5ccccc5c4)cc32)C1=O` , is the recorded IC50 below the cut-off of 1000 nM?
Response line: class 1

Prompt line: For `O=C(O)CN1C(=O)S/C(=C2\C(=O)N(CC3CCCCC3)c3ccccc32)C1=O` , is the recorded IC50 below the cut-off of 1000 nM?
Response line: class 0

Origin of values: patent US12030877B2
